# targetSystem: BTK C481S (Homo sapiens, UniProt Q06187, C481S)
# Construct: His-TEV-hsBTK(328-659)(C481S) from the Merck Serono Protein Purification Laboratory; His (N); TEV (protease cleavage site) (N)
# Sequence (Q06187 328-659 C481S): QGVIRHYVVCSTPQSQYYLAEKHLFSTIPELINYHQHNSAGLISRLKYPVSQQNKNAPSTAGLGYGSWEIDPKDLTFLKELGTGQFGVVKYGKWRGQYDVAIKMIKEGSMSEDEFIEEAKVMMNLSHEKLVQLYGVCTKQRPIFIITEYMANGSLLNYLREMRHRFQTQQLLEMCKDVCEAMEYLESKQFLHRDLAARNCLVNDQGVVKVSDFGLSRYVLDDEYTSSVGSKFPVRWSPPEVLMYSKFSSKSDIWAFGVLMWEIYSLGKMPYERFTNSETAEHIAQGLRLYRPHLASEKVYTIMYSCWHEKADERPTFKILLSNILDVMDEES
# assay: Assay B: Microfluidic Off-Chip Mobility Shift Assay against BTK C481S enzyme
# measurementContext: His-TEV-hsBTK(328-659)(C481S), 90 min, 25° C
measurementName: IC50

// compound CC(C)(C)c1noc(C(=O)NCc2ccc(-c3ccnc4[nH]c(-c5cnn(C6COC6)c5)nc34)cc2F)n1 , assay BTK C481S (Homo sapiens, UniProt Q06187, C481S), IC50 value: < 100 nM
